Hey, just so you know, these numbers are from patent US20260159499A1.

- system.name: FAK recombinant protein (Homo sapiens, UniProt Q05397)
- Sequence (Q05397 whole entry, species assumed): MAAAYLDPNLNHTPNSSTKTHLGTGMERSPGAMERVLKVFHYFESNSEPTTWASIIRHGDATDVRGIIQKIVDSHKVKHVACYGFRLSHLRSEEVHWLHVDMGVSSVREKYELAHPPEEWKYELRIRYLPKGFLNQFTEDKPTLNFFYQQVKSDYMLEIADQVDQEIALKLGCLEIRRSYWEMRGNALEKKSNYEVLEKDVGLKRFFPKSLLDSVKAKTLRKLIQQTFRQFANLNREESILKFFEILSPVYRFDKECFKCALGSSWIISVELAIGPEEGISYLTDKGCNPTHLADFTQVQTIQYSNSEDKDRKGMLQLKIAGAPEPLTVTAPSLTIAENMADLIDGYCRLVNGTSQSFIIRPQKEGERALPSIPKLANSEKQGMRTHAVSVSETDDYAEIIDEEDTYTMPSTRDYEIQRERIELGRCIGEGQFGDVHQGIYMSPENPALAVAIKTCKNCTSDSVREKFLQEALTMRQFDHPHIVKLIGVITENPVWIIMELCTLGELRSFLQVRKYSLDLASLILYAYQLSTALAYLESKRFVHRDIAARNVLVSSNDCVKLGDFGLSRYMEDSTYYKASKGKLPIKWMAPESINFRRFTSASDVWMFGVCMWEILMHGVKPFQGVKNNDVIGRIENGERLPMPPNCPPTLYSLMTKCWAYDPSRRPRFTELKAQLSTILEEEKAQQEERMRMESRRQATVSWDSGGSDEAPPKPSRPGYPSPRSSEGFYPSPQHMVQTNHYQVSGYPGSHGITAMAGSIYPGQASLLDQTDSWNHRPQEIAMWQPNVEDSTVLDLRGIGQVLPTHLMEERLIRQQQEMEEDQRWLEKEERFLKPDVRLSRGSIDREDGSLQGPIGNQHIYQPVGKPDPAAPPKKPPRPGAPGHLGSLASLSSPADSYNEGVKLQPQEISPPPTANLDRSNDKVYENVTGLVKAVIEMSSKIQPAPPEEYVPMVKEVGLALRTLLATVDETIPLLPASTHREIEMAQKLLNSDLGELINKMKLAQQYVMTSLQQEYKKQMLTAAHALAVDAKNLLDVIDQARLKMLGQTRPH
- method.notes: Inhibitory activity against FAK enzyme
- condition.parameters: TK substrate, ATP
Reported IC50 values follow for various compounds

Worked examples, 5 compounds total:
compound: COc1cc(N2CC3(CCN(C)CC3)C2)ccc1Nc1ncc(C(F)(F)F)c(Oc2cccc3c2C(=O)N(C)C3C)n1 (stereo not shown)
IC50: < 10 nM

compound: COc1cc(N2CC3(CCN(C)CC3)C2)ccc1Nc1ncc(F)c(Oc2cccc3c2C(=O)N(C)C3)n1
IC50: < 10 nM

compound: COc1cc(C(=O)NC2CC3(CCN(C)CC3)C2)c(-c2cnn(C)c2)cc1Nc1ncc(C(F)(F)F)c(Oc2cccc3c2C(=O)N(C)C3)n1
IC50: 10 to 50 nM

compound: COc1cc(C(=O)NC2CC3(CCN(C)CC3)C2)c(F)cc1Nc1ncc(C(F)(F)F)c(Cc2cccc3c2C(=O)N(C)C3C)n1 (stereo not shown)
IC50: < 10 nM

compound: COc1cc(N2CC3(CCN(C)CC3)C2)ccc1Nc1ncc([N+](=O)[O-])c(Oc2cccc3c2C(=O)N(C)C3)n1
IC50: < 10 nM

Requested read-out IC50, target or system FAK recombinant protein (Homo sapiens, UniProt Q05397), entry `COc1cc(N2CC3(CCN(C)CC3)C2)ccc1Nc1ncc(C#N)c(Oc2cccc3c2C(=O)N(C)C3)n1`
< 10 nM

Another: `CCN1CCC2(CC1)CN(c1ccc(Nc3ncc(C(F)(F)F)c(Oc4cccc5c4C(=O)N(C)C5)n3)c(OC)c1)C2`
< 10 nM

Try the compound COc1cc(C(=O)NC2CCC3(CC2)CN(C)C3)ccc1Nc1ncc(C(F)(F)F)c(Oc2cccc3c2C(=O)N(C)C3C)n1 (stereo not shown)
< 10 nM

* * *

- Tested on: PC3 cells
- method.notes: Inhibition of PC3 cell adherence
- Type: cell-based
- condition.parameters: Homo sapiens, PC-3; PC3, 4 h treatment; read-out: Inhibitory activity against PC-3 cell adherence IC50
measured.metric: IC50 (nM)

compound: COc1cc(N2CCC3(CCN(C)CC3)CC2)ccc1Nc1ncc(C(F)(F)F)c(Oc2cccc3c2C(=O)N(C)C3)n1 [Compound 94]
system.name: PC3 cells
unit.of.measure: nM
quantitative.readout: 2.58
//
compound: COc1cc(N2CC3(CCN(C)CC3)C2)ccc1Nc1ncc([N+](=O)[O-])c(Oc2cccc3c2C(=O)N(C)C3)n1 [Compound 114]
system.name: PC3 cells
unit.of.measure: nM
quantitative.readout: 2.63

[I] COc1cc(C(=O)N2CC3(CCN(C)CC3)C2)c(F)cc1Nc1ncc(C(F)(F)F)c(Oc2cccc3c2C(=O)N(C)C3)n1 [Compound 34]
[II] COc1cc(N2CC3(CCN(C)CC3)C2)ccc1Nc1ncc(C(F)(F)F)c(Oc2cccc3c2C(=O)N(C)C3(C)C)n1 [Compound 101]
Could you tell me which of I and II has the lower IC50 reading? Which one? Tell me its label.
II

* * *

Each item that follows carries a reported IC50.
- System: PC3 cells
- method.notes: PC3 cell proliferation, 2D activity detection
- Assay type: cell-based, human
- condition.parameters: Homo sapiens, PC-3; PC3, 2D, 72 h, class symbol; read-out: 2D IC50 against PC3 cells

Examples with answers:
compound: COc1cc(N2CC3(CCN(C)CC3)C2)ccc1Nc1ncc(Br)c(Oc2cccc3c2C(=O)N(C)C3)n1 [Compound 112]
IC50: > 2 µM
--
compound: COc1cc(N2CC3(CCC2=O)CCN(C)CC3)c(F)cc1Nc1ncc(C(F)(F)F)c(Oc2cccc3c2C(=O)N(C)C3)n1 [Compound 65]
IC50: > 2 µM
--
compound: COc1cc(C(=O)NC2CC3(CCN(C)CC3)C2)c(F)cc1Nc1ncc(C(F)(F)F)c(Cc2cccc3c2C(=O)N(C)C3)n1 [Compound 49]
IC50: > 2 µM
--
compound: COc1cc(C(=O)NC2CCC3(CCN(C)CC3)C2)c(F)cc1Nc1ncc(C(F)(F)F)c(Oc2ccccc2N(C)S(C)(=O)=O)n1 (stereo not shown) [Compound 11]
IC50: > 2 µM
--
compound: CNC(=O)c1ccccc1Oc1nc(Nc2cc(F)c(C(=O)NC3CCC4(CC3)CN(C)C4)cc2OC)ncc1C(F)(F)F [Compound 2]
IC50: > 2 µM
--
compound: COc1cc(C(=O)NC2CCC3(CC2)CN(C)C3)ccc1Nc1ncc(C(F)(F)F)c(Oc2cccc3c2C(=O)N(C)C3)n1 [Compound 46]
IC50: > 2 µM

Data request, read-out IC50, for COc1cc(N2CC3(CCNCC3)C2)c(F)cc1Nc1ncc(C(F)(F)F)c(Oc2cccc3c2C(=O)N(C)C3)n1 [Compound 107]
> 2 µM

* * *

- method.notes: In vivo pharmacokinetic experiment in mice
- Set-up: species or system CD-1 female mice
- condition.parameters: female, mouse, plasma; CD-1 mice, oral administration 10 mg/kg
measured.metric: half-life (h)

[A] COc1cc(C(=O)NC2CCC3(CC2)CN(C)C3)c(F)cc1Nc1ncc(C(F)(F)F)c(Oc2cccc3c2C(=O)N(C)C3)n1 [Compound 20]
[B] COc1cc(N2CC3(CCN(C)CC3)C2)ccc1Nc1ncc(C(F)(F)F)c(Oc2cccc3c2C(=O)N(C)C3)n1 [Compound 90]
Pick one: A or B . Which one has the lower reported half-life? Bench note: the answer is the label of the chosen record.
A

* * *

- method.notes: In vivo pharmacokinetic experiment in mice
- Design: species or system CD-1 female mice
- condition.parameters: female, mouse, plasma; CD-1 mice, injection (IV) 1 mg/kg (footnote)
measured.metric: clearance (mL/min/kg)
Express your answer in mL/min/kg, writing the number without its unit.

Which clearance reading was recorded for the compound `COc1cc(N2CC3(CCN(C)CC3)C2)ccc1Nc1ncc(C(F)(F)F)c(Oc2cccc3c2C(=O)N(C)C3)n1` ?
20.5

* * *

- system.name: FAK recombinant protein (Homo sapiens, UniProt Q05397)
- method.notes: Inhibitory activity against FAK enzyme
- condition.parameters: TK substrate, ATP
pIC50: −log10 of the molar value.
// reported pIC50 per item

The cases that follow already have their pIC50 on record.
compound: CNC(=O)c1ccccc1Oc1nc(Nc2cc(F)c(C(=O)NC3CCC4(CC3)CN(C)C4)cc2OC)ncc1C(F)(F)F
system.name: FAK recombinant protein (Homo sapiens, UniProt Q05397)
pIC50: > 8.00
--
compound: COc1cc(N2CC3(CCN(C)CC3)OC2=O)c(F)cc1Nc1ncc(C(F)(F)F)c(Oc2cccc3c2C(=O)N(C)C3)n1
system.name: FAK recombinant protein (Homo sapiens, UniProt Q05397)
pIC50: 7.30 to 8.00
--
compound: COc1cc(N2CC3(CCNCC3)C2)ccc1Nc1ncc(C(F)(F)F)c(Oc2cccc3c2C(=O)N(C)C3)n1
system.name: FAK recombinant protein (Homo sapiens, UniProt Q05397)
pIC50: > 8.00

Continue with the next compound.
Quick one: pIC50 for `COc1cc(N2CC3(CCN(C)CC3)C2)ccc1Nc1ncc(C(F)(F)F)c(Oc2cccc3c2C(=O)N(C)C3(C)C)n1` ?
> 8.00

* * *

- System: PC3 cells
- method.notes: Inhibition of PC3 cell adherence
- Format: cell-based
- condition.parameters: Homo sapiens, PC-3; PC3, 4 h treatment; read-out: Inhibitory activity against PC-3 cell adherence IC50
measured.metric: IC50 (nM)

compound: COc1cc(N2CC3(CCN(C)CC3)C2)ccc1Nc1ncc(Br)c(Oc2cccc3c2C(=O)N(C)C3)n1 [Compound 112]
IC50 [nM]: 0.93

[P] COc1cc(N2CC3(CCN(C)CC3)C2)ccc1Nc1ncc(Cl)c(Oc2cccc3c2C(=O)N(C)C3)n1 [Compound 111]
[Q] COc1cc(N2CC3(CCN(C)C3)OC2=O)c(F)cc1Nc1ncc(C(F)(F)F)c(Oc2cccc3c2C(=O)N(C)C3)n1 (stereo not drawn) [Compound 64]
Dear colleague, could you let me know whether P or Q has the lower recorded IC50? Thanks. Give the label under which the chosen entry appears.
P
(P: 1.62 nM, Q: 3.33 nM)

* * *

Below is a list of entries, each paired with its recorded pIC50 value.
- system.name: FAK recombinant protein (Homo sapiens)
- method.notes: Inhibitory activity against FAK enzyme
- condition.parameters: TK substrate, ATP
pIC50: −log10 of the molar value.

Solved cases below.
compound: COc1cc(C(=O)N2CCC23CCN(C)CC3)c(F)cc1Nc1ncc(C(F)(F)F)c(Oc2cccc3c2C(=O)N(C)C3)n1 [Compound 38]
system.name: FAK recombinant protein (Homo sapiens)
result: 7.30 to 8.00
//
compound: COc1cc(N2CCC3(CC2)CN(C)C3)c(F)cc1Nc1ncc(C(F)(F)F)c(Oc2cccc3c2C(=O)N(C)C3)n1 [Compound 91]
system.name: FAK recombinant protein (Homo sapiens)
result: > 8.00
//
compound: COc1cc(C(=O)NC2CC3(CCN(C)CC3)C2)ccc1Nc1ncc(C(F)(F)F)c(Cc2cccc3c2C(=O)N(C)C3C)n1 (centres unmarked) [Compound 75]
system.name: FAK recombinant protein (Homo sapiens)
result: > 8.00
//
compound: COc1cc(C(=O)NC2CCn3cnnc3C2)c(F)cc1Nc1ncc(C(F)(F)F)c(Oc2cccc3c2C(=O)N(C)C3)n1 (centres unmarked) [Compound 33]
system.name: FAK recombinant protein (Homo sapiens)
result: > 8.00

Let's switch to this compound now.
Record [2H]C([2H])([2H])N1CC2(CCC(NC(=O)c3cc(OC)c(Nc4ncc(C(F)(F)F)c(Oc5cccc6c5C(=O)N(C)C6)n4)cc3F)CC2)C1 [Compound 48] : what is its pIC50 with FAK recombinant protein (Homo sapiens)?
> 8.00
